Cytotoxicity (MTT) CC10 listing for selected molecules.
Test system: A549 cells
Details: human
Measurement Name: Cytotoxicity (MTT) CC10

Structure String | Tested On | Measurement Name | Observed Value
CCN(c1ccc(Cl)cc1C)S(=O)(=O)c1cc(Cl)ccc1Cl | A549 cells | Cytotoxicity (MTT) CC10 | >5 µM
CCN(c1ccc(CCN)cc1)S(=O)(=O)c1cc(Cl)ccc1Cl | A549 cells | Cytotoxicity (MTT) CC10 | >25 µM
CCN(c1ccccc1C#N)S(=O)(=O)c1cc(Cl)ccc1Cl | A549 cells | Cytotoxicity (MTT) CC10 | >5 µM
C#CCN(c1ccccc1C)S(=O)(=O)c1cc(Cl)ccc1Cl | A549 cells | Cytotoxicity (MTT) CC10 | >5 µM
CCN(c1ccccc1C)S(=O)(=O)c1cc(Cl)ccc1Cl | A549 cells | Cytotoxicity (MTT) CC10 | >25 µM
CCN(c1ccccc1)S(=O)(=O)c1cc(Cl)ccc1Cl | A549 cells | Cytotoxicity (MTT) CC10 | >5 µM
CCN(c1ccc(CCO)cc1)S(=O)(=O)c1cc(Cl)ccc1Cl | A549 cells | Cytotoxicity (MTT) CC10 | >25 µM
CCN(c1ccc(CC(=O)O)cc1)S(=O)(=O)c1cc(Cl)ccc1Cl | A549 cells | Cytotoxicity (MTT) CC10 | >25 µM
C=CCN(c1ccccc1C)S(=O)(=O)c1cc(Cl)ccc1Cl | A549 cells | Cytotoxicity (MTT) CC10 | >5 µM

* * *

System: A549 cells
Conditions: human
Cytotoxicity (MTT) CC10 listing for selected molecules.

Structure String | Cytotoxicity (MTT) CC10
Cc1ccccc1N(C)S(=O)(=O)c1cc(Cl)ccc1Cl | >5 µM
CCN(c1ccc(Cl)cc1F)S(=O)(=O)c1cc(Cl)ccc1Cl | >5 µM
Cc1cc(Cl)ccc1N(CCF)S(=O)(=O)c1cc(Cl)ccc1Cl | >5 µM
Cc1ccccc1N(C(C)C)S(=O)(=O)c1cc(Cl)ccc1Cl | >5 µM
Cc1ccccc1NS(=O)(=O)c1cc(Cl)ccc1Cl | >5 µM
CCN(c1ccc(F)cc1)S(=O)(=O)c1cc(Cl)ccc1Cl | >5 µM
C#CCN(c1ccc(Cl)cc1C)S(=O)(=O)c1cc(Cl)ccc1Cl | >5 µM
CCN(c1ccc(C)cc1)S(=O)(=O)c1cc(Cl)ccc1Cl | >25 µM
Cc1cc(Cl)ccc1N(C(F)F)S(=O)(=O)c1cc(Cl)ccc1Cl | >5 µM
CCN(c1ccccc1Cl)S(=O)(=O)c1cc(Cl)ccc1Cl | >5 µM
CCN(c1c(C)cc(Cl)cc1Cl)S(=O)(=O)c1cc(Cl)ccc1Cl | >5 µM
C=CCN(c1ccc(Cl)cc1C)S(=O)(=O)c1cc(Cl)ccc1Cl | >5 µM
CCN(c1ccc(F)cc1F)S(=O)(=O)c1cc(Cl)ccc1Cl | >5 µM
Cc1cc(Cl)ccc1N(CC1CC1)S(=O)(=O)c1cc(Cl)ccc1Cl | >5 µM
CCN(c1ccc(CC(=O)N2CCN(C)CC2)cc1)S(=O)(=O)c1cc(Cl)ccc1Cl | >25 µM
CCN(c1ccc(CCNC(C)=O)cc1)S(=O)(=O)c1cc(Cl)ccc1Cl | >25 µM
COCCN(c1ccc(Cl)cc1C)S(=O)(=O)c1cc(Cl)ccc1Cl | >5 µM
CCOC(=O)Cc1ccc(N(CC)S(=O)(=O)c2cc(Cl)ccc2Cl)cc1 | >5 µM
Cc1cc(Cl)ccc1N(CCO)S(=O)(=O)c1cc(Cl)ccc1Cl | >5 µM
